# System: experimental rat hypercholesterolemia model
# procedure_details: Biochemical blood analysis (drug toxicity parameters) in rat hypercholesterolemia model
# Assay type: in vivo, male rats of Wistar line
# conditions_used: Day 30 of treatment (Day 60 of study); dose 80 mg
quantity_name: Potassium
Enter the number, and then the unit.

Observed Potassium on experimental rat hypercholesterolemia model for CC(C)n1c(/C=C/[C@@H](O)C[C@@H](O)CC(=O)O)c(-c2ccc(F)cc2)c2ccccc21 (stereo in doubt) [FV] , please.
3 mM

* * *

# Test system: experimental rat hypercholesterolemia model
# procedure_details: Biochemical blood analysis (drug toxicity parameters) in rat hypercholesterolemia model
# Format: in vivo, male rats of Wistar line
# conditions_used: blood, Day 60 of the treatment (Day 90 of the study); SV + AGA 20 + 108 mg, SV 20 mg, AGA 108 mg
quantity_name: Potassium (mM)
Number only, in mM; omit the unit.

I am curious: what Potassium value has been reported for CC1(C)[C@@H](O[C@H]2O[C@H](C(=O)O)[C@@H](O)[C@H](O)[C@H]2O[C@@H]2O[C@H](C(=O)O)[C@@H](O)[C@H](O)[C@H]2O)CC[C@]2(C)[C@H]3C(=O)C=C4[C@@H]5C[C@@](C)(C(=O)O)CC[C@]5(C)CC[C@@]4(C)[C@]3(C)CC[C@@H]12.N [AGA, Monoammonium glycyrrhizinate] ?
3.2

* * *

Entries and their measured Potassium follow.
# System: experimental rat hypercholesterolemia model
# procedure_details: Biochemical blood analysis (drug toxicity parameters) in rat hypercholesterolemia model
# Type: in vivo, male rats of Wistar line
# conditions_used: Day 30 of treatment (Day 60 of study); dose 108 mg
Number only, in mM; omit the unit.

Reference set (2 entries):
I am curious: what Potassium value has been reported for CC1(C)[C@@H](O)CC[C@]2(C)[C@H]3C(=O)C=C4[C@@H]5C[C@@](C)(C(=O)O)CC[C@]5(C)CC[C@@]4(C)[C@]3(C)CC[C@@H]12 ?
2.8

I am curious: what Potassium value has been reported for CC1(C)[C@@H](O[C@H]2O[C@H](C(=O)O)[C@@H](O)[C@H](O)[C@H]2O[C@@H]2O[C@H](C(=O)O)[C@@H](O)[C@H](O)[C@H]2O)CC[C@]2(C)[C@H]3C(=O)C=C4[C@@H]5C[C@@](C)(C(=O)O)CC[C@]5(C)CC[C@@]4(C)[C@]3(C)CC[C@@H]12.[Na+] [SGA, sodium glycyrrhizinate] ?
2.5

New cases:
I am curious: what Potassium value has been reported for CC1(C)[C@@H](O[C@H]2O[C@H](C(=O)O)[C@@H](O)[C@H](O)[C@H]2O[C@@H]2O[C@H](C(=O)O)[C@@H](O)[C@H](O)[C@H]2O)CC[C@]2(C)[C@H]3C(=O)C=C4[C@@H]5C[C@@](C)(C(=O)O)CC[C@]5(C)CC[C@@]4(C)[C@]3(C)CC[C@@H]12.N [AGA, Monoammonium glycyrrhizinate] ?
2.7

* * *

# Tested on: experimental rat hypercholesterolemia model
# procedure_details: Biochemical blood analysis (drug toxicity parameters) in rat hypercholesterolemia model
# Type: in vivo, male rats of Wistar line
# conditions_used: blood, Day 60 of the treatment (Day 90 of the study); LV + SGA 20 + 108 mg, LV 20 mg, SGA 108 mg
quantity_name: Potassium (mM)
Number only, in mM; omit the unit.

I am curious: what Potassium value has been reported for CC1(C)[C@@H](O[C@H]2O[C@H](C(=O)O)[C@@H](O)[C@H](O)[C@H]2O[C@@H]2O[C@H](C(=O)O)[C@@H](O)[C@H](O)[C@H]2O)CC[C@]2(C)[C@H]3C(=O)C=C4[C@@H]5C[C@@](C)(C(=O)O)CC[C@]5(C)CC[C@@]4(C)[C@]3(C)CC[C@@H]12.[Na+] [SGA, sodium glycyrrhizinate] ?
3.2

* * *

# Test system: experimental rat hypercholesterolemia model
# procedure_details: Biochemical blood analysis (drug toxicity parameters) in rat hypercholesterolemia model
# Type: in vivo, male rats of Wistar line
# conditions_used: blood, Day 60 of the treatment (Day 90 of the study); RV + AGA 10 + 108 mg, RV 10 mg, AGA 108 mg
quantity_name: Potassium (mM)
Number only, in mM; omit the unit.

I am curious: what Potassium value has been reported for CC(C)c1nc(N(C)S(C)(=O)=O)nc(-c2ccc(F)cc2)c1/C=C/[C@@H](O)C[C@@H](O)CC(=O)O ?
2.2

I am curious: what Potassium value has been reported for CC1(C)[C@@H](O[C@H]2O[C@H](C(=O)O)[C@@H](O)[C@H](O)[C@H]2O[C@@H]2O[C@H](C(=O)O)[C@@H](O)[C@H](O)[C@H]2O)CC[C@]2(C)[C@H]3C(=O)C=C4[C@@H]5C[C@@](C)(C(=O)O)CC[C@]5(C)CC[C@@]4(C)[C@]3(C)CC[C@@H]12.N [AGA, Monoammonium glycyrrhizinate] ?
3.2

* * *

# Test system: experimental rat hypercholesterolemia model
# procedure_details: Biochemical blood analysis (drug toxicity parameters) in rat hypercholesterolemia model
# Type: in vivo, male rats of Wistar line
# conditions_used: Day 30 of treatment (Day 60 of study); dose 10 mg
quantity_name: Potassium (mM)
Number only, in mM; omit the unit.

I am curious: what Potassium value has been reported for CC(C)c1nc(N(C)S(C)(=O)=O)nc(-c2ccc(F)cc2)c1/C=C/[C@@H](O)C[C@@H](O)CC(=O)O ?
4.3

* * *

# Tested on: experimental rat hypercholesterolemia model
# procedure_details: Biochemical blood analysis (drug toxicity parameters) in rat hypercholesterolemia model
# Assay type: in vivo, male rats of Wistar line
# conditions_used: blood, Day 60 of the treatment (Day 90 of the study); PV + GtA 40 + 108 mg, PV 20 mg, GtA 108 mg
Entries and their measured Potassium follow.
Number only, in mM; omit the unit.

I am curious: what Potassium value has been reported for CC1(C)[C@@H](O)CC[C@]2(C)[C@H]3C(=O)C=C4[C@@H]5C[C@@](C)(C(=O)O)CC[C@]5(C)CC[C@@]4(C)[C@]3(C)CC[C@@H]12 [GtA] ?
3.1

New cases:
I am curious: what Potassium value has been reported for CC[C@H](C)C(=O)OC1C[C@H](O)C=C2C=C[C@H](C)C(CC[C@@H](O)C[C@@H](O)CC(=O)O)[C@H]21 (stereo in doubt) [PV] ?
4.3
